run_description: Antiproliferative activity against human PNT1A cells assessed as inhibition of cell growth measured after 48 hrs by Alamar blue dye based assay
Assay type: toxicity
Exercise: for every item that follows, state its recorded IC50 at 48 h.
Answers are plain numbers, in µM.

Examples with their reported IC50 at 48 h follow.
O=c1[nH]cc(F)c(=O)[nH]1
192
C[n+]1ccc(/C=C/c2cc3c(O)c(c2)Cc2cc(C(C)(C)C)cc(c2OCCCn2cc(CN4C(=O)C(=O)c5cc(F)ccc54)nn2)Cc2cc(/C=C/c4cc[n+](C)cc4)cc(c2O)Cc2cc(C(C)(C)C)cc(c2OCCCn2cc(CN4C(=O)C(=O)c5cc(F)ccc54)nn2)C3)cc1.[I-].[I-]
62.9
C[n+]1ccc(/C=C/c2cc3c(O)c(c2)Cc2cc(C(C)(C)C)cc(c2OCCCn2cc(CN4C(=O)C(=O)c5ccccc54)nn2)Cc2cc(/C=C/c4cc[n+](C)cc4)cc(c2O)Cc2cc(C(C)(C)C)cc(c2OCCCn2cc(CN4C(=O)C(=O)c5ccccc54)nn2)C3)cc1.[I-].[I-]
77.6

Shift focus to the following entry.
Would you kindly share the measured IC50 at 48 h for Cc1ccc2c(c1)C(=O)C(=O)N2Cc1cn(CCCOc2c3cc(C(C)(C)C)cc2Cc2cc(/C=C/c4cc[n+](C)cc4)cc(c2O)Cc2cc(C(C)(C)C)cc(c2OCCCn2cc(CN4C(=O)C(=O)c5cc(C)ccc54)nn2)Cc2cc(/C=C/c4cc[n+](C)cc4)cc(c2O)C3)nn1.[I-].[I-] ?
74.9
